Target: Delta-type opioid receptor (Homo sapiens)
Sequence (P41143 whole entry): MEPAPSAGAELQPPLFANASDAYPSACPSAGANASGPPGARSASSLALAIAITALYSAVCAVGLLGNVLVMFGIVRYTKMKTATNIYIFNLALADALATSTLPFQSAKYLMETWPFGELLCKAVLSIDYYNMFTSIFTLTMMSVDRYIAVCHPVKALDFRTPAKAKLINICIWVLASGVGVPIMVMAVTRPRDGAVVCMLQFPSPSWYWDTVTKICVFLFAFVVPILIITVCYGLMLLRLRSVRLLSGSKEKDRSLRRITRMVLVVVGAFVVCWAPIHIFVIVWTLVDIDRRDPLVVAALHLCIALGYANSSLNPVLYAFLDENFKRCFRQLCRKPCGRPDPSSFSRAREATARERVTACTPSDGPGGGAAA
Assay: Displacement of [125]OXY from delta opioid receptor
Property Label: pKi
// pKi: -log10(molar conc.)

# example entries with known answers
# Compound, Value Observed
rows = [
    ("CCCCCC(=O)O[C@H]1C[C@@H](C(=O)OC)[C@]2(C)CCC3C(=O)O[C@H](c4ccoc4)C[C@]3(C)[C@H]2C1=O (single isomer, unassigned)", 5.37),
    ("COC(=O)[C@@H]1C[C@H](OC(=O)c2cccs2)C(=O)[C@H]2[C@@]1(C)CC[C@H]1C(=O)O[C@H](c3ccoc3)C[C@]21C", 5.86),
    ("CCCCC(=O)O[C@H]1C[C@@H](C(=O)OC)[C@]2(C)CCC3C(=O)O[C@H](c4ccoc4)C[C@]3(C)[C@H]2C1=O (single isomer, unassigned)", 5.40),
    ("CCCC(=O)O[C@H]1C[C@@H](C(=O)OC)[C@]2(C)CCC3C(=O)O[C@H](c4ccoc4)C[C@]3(C)[C@H]2C1=O (single isomer, unassigned)", 5.39),
    ("COC(=O)[C@@H]1C[C@H](OC(=O)c2ccc(Br)cc2)C(=O)[C@H]2[C@@]1(C)CCC1C(=O)O[C@H](c3ccoc3)C[C@@]12C (single isomer, unassigned)", 5.85),
]

Reported pKi, compound COC(=O)[C@@H]1C[C@H](OS(=O)(=O)c2ccc(C)cc2)C(=O)[C@H]2[C@@]1(C)CCC1C(=O)O[C@H](c3ccoc3)C[C@@]12C (single isomer, unassigned) : ____
5.43

Entry COC(=O)[C@@H]1C[C@H](OC(=O)CCc2ccccc2)C(=O)[C@H]2[C@@]1(C)CC[C@H]1C(=O)O[C@H](c3ccoc3)C[C@]21C : reported pKi = ?
5.03
